- experimental protocol: Phase 1 part A: PK after single and multiple once-daily oral doses
- Format: in vivo, human
- run parameters: human, plasma, oral, 10 mg, Day 30, 10 mg once daily, Japanese; mean (CV%); read-out: Cmin
property label: concentration at 30 day

compound="Cn1c(=O)oc2ccc(-c3ccc(C[C@@H](C#N)NC(=O)[C@@H]4CNCCCO4)cc3)cc21 [Brensocatib]" measured_result="19.6 ng/mL"
